# Test system: rabbit aortic rings
# EXPERIMENT NOTES: Assay B: In vitro vascular smooth muscle response for AII (antagonist activity, pA2)
# Assay type: cell-based
# APPLIED CONDITIONS: Oryctolagus cuniculus, two values in a cell = two determinations

>  <COMPOUND>
CCCCc1nn(CC(OCc2ccccc2)c2ccccc2)c(=O)n1Cc1ccc(-c2ccccc2-c2nn[nH]n2)cc1 (centres unmarked) [Compound 108]

>  <Kb (nM)>
5010

$$$$
>  <COMPOUND>
CCCCc1cn(-c2c(C)cc(C(C)(C)C)cc2C)c(=O)n1Cc1ccc(-c2ccccc2-c2nnn[nH]2)nc1 [Compound 244]

>  <Kb (nM)>
67.6

$$$$
>  <COMPOUND>
CCCCCCn1nc(CCCC)n(Cc2ccc(-c3ccccc3-c3nn[nH]n3)cc2)c1=O [Compound 96]

>  <Kb (nM)>
10

$$$$
>  <COMPOUND>
CCCCc1nc(CCC(=O)O)nn1Cc1ccc(-c2ccccc2-c2nnn[nH]2)cc1 [Compound 74]

>  <Kb (nM)>
2.75

$$$$
>  <COMPOUND>
CCCCc1nc2c(O)nnc(O)c2n1Cc1ccc(-c2ccccc2C(=O)O)cc1 [Compound 120]

>  <Kb (nM)>
0.891

$$$$
>  <COMPOUND>
CCCCc1nc(-c2ccccc2Cl)nn1Cc1ccc(-c2ccccc2-c2nnn[nH]2)nc1 [Compound 278]

>  <Kb (nM)>
3.24

$$$$
>  <COMPOUND>
CCCCc1nc(Cc2ccc(-c3ccccc3-c3nnn[nH]3)cc2)nn1CCCC [Compound 140]

>  <Kb (nM)>
7.94

$$$$
>  <COMPOUND>
CCCCc1nc(Cl)nn1Cc1ccc(-c2ccccc2C(=O)O)cc1 [Compound 17]

>  <Kb (nM)>
2.29

$$$$

---

Below, each of the molecules is paired with its reported Kb value.
# Tested on: rabbit aortic rings
# EXPERIMENT NOTES: Assay B: In vitro vascular smooth muscle response for AII (antagonist activity, pA2)
# Type: cell-based
# APPLIED CONDITIONS: Oryctolagus cuniculus, two values in a cell = two determinations
OBSERVED PROPERTY: Kb (nM)

>  <CHEMICAL STRING>
CCCCc1nc(-c2ccccc2C(C)C)n(Cc2ccc(-c3ccccc3-c3nnn[nH]3)nc2)n1

>  <OBSERVED PROPERTY>
Kb

>  <MEASUREMENT>
0.851

$$$$
>  <CHEMICAL STRING>
CCCCc1cn(CC)c(=O)n1Cc1ccc(-c2ccccc2-c2nnn[nH]2)nc1

>  <OBSERVED PROPERTY>
Kb

>  <MEASUREMENT>
1.78

$$$$
>  <CHEMICAL STRING>
CCCCn1cc(C2CCCCC2)n(Cc2ccc(-c3ccccc3-c3nnn[nH]3)nc2)c1=O

>  <OBSERVED PROPERTY>
Kb

>  <MEASUREMENT>
1.62

$$$$
>  <CHEMICAL STRING>
CCCCc1nc(CCCNC(=O)OC(C)(C)C)n(Cc2ccc(-c3ccccc3-c3nnn[nH]3)cc2)n1

>  <OBSERVED PROPERTY>
Kb

>  <MEASUREMENT>
100

$$$$
>  <CHEMICAL STRING>
CCCCc1nc(CC)nn1Cc1ccc(-c2ccccc2-c2nnn[nH]2)cc1

>  <OBSERVED PROPERTY>
Kb

>  <MEASUREMENT>
19.5

$$$$
>  <CHEMICAL STRING>
CCCCc1nc(C(=O)O)nn1Cc1ccc(-c2ccccc2-c2nnn[nH]2)cc1

>  <OBSERVED PROPERTY>
Kb

>  <MEASUREMENT>
17

$$$$
>  <CHEMICAL STRING>
CCCCCc1cn(CCCC)c(=O)n1Cc1ccc(-c2ccccc2-c2nnn[nH]2)nc1

>  <OBSERVED PROPERTY>
Kb

>  <MEASUREMENT>
1.66

$$$$
>  <CHEMICAL STRING>
CCCCc1nc(C(F)(F)Cc2ccccc2)nn1Cc1ccc(-c2ccccc2-c2nnn[nH]2)cc1

>  <OBSERVED PROPERTY>
Kb

>  <MEASUREMENT>
2.04

$$$$

---

# SYSTEM UNDER TEST: angiotensin II AT1 receptor
# EXPERIMENT NOTES: Assay A: Angiotensin II binding activity, rat uterine membrane preparation, 125I-AII displacement
# Description: Assay A: Antiotensin II Binding Activity Compounds of the invention were tested for ability to bind to the smooth muscle angiotensin II receptor using a rat uterine membrane preparation. […] Rat uterine membranes were prepared from fresh tissue. […] Filters were assayed for radioactivity in a Micromedic gamma counter. […] Specific binding was calculated as total binding minus nonspecific binding. […] Binding data were analyzed by a nonlinear least-squares curve fitting program.
pIC50: −log10 of the molar value.
Group membership follows pIC50 per the scheme low band (below 7), middle band (7 to below 8), high band (8 or more)

>  <COMPOUND>
CCCCc1nc(CCC2CCCCC2)nn1Cc1ccc(-c2ccccc2-c2nnn[nH]2)cc1

>  <CLASS LABEL>
low band

$$$$
>  <COMPOUND>
CCCCc1c(C)n(CCCC)c(=O)n1Cc1ccc(-c2ccccc2-c2nnn[nH]2)cc1

>  <CLASS LABEL>
high band

$$$$
>  <COMPOUND>
CCCCc1cn(-c2c(C)cc(C)cc2C)c(=O)n1Cc1ccc(-c2ccccc2-c2nnn[nH]2)nc1

>  <CLASS LABEL>
low band

$$$$
>  <COMPOUND>
CCCCn1nc(C(OC)OC)nc1Cc1ccc(-c2ccccc2-c2nnn[nH]2)nc1

>  <CLASS LABEL>
middle band

$$$$
>  <COMPOUND>
C[C@]12CCC(=O)C=C1[C@@H]1CC1[C@H]1[C@@H]3CC[C@@]4(CCC(=O)O4)[C@@]3(C)CC3O[C@]312 (stereo partly shown)

>  <CLASS LABEL>
high band

$$$$
>  <COMPOUND>
CCCCn1nc(C(=O)NC(C)(C)C)nc1Cc1ccc(-c2ccccc2-c2nnn[nH]2)nc1

>  <CLASS LABEL>
low band

$$$$
>  <COMPOUND>
CCCCc1cn(-c2ccccc2C)c(=O)n1Cc1ccc(-c2ccccc2-c2nnn[nH]2)nc1

>  <CLASS LABEL>
high band

$$$$
>  <COMPOUND>
CCCCc1nc(C(=O)N(C)C(C)(C)C)nn1Cc1ccc(-c2ccccc2-c2nnn[nH]2)nc1

>  <CLASS LABEL>
low band

$$$$
>  <COMPOUND>
CCCCc1nc(C(OC)OC)n(Cc2ccc(-c3ccccc3-c3nnn[nH]3)cc2)n1

>  <CLASS LABEL>
low band

$$$$
>  <COMPOUND>
CCCCc1nc(CCCNC(=O)OC(C)(C)C)nn1Cc1ccc(-c2ccccc2-c2nnn[nH]2)cc1

>  <CLASS LABEL>
high band

$$$$
>  <COMPOUND>
CCCCc1nn(CCCC)c(=O)n1Cc1ccc(-c2ccccc2C(=O)O)cc1

>  <CLASS LABEL>
middle band

$$$$
>  <COMPOUND>
CCCCc1cn(C2CCCCC2(C)C)c(=O)n1Cc1ccc(-c2ccccc2-c2nnn[nH]2)nc1 (stereo not shown)

>  <CLASS LABEL>
middle band

$$$$
>  <COMPOUND>
CCCCc1ncnn1Cc1ccc(-c2ccccc2-c2nnn[nH]2)cc1

>  <CLASS LABEL>
middle band

$$$$
